Tested on: TK-10 renal
Experiment: NCI tumour cell line growth inhibition, 48 h
Collected TGI values appear next to each entry.

Some solved cases for reference:
{"Compound": "COc1cc(C(=O)NNC(=O)c2cc(Br)ccc2NC(=O)c2cccs2)cc(OC)c1OC", "Measured On": "TK-10 renal", "Readout Kind": "TGI", "Observed": "> 100 µM"}
{"Compound": "Cc1sc2nc(N(C)C)oc(=O)c2c1C", "Measured On": "TK-10 renal", "Readout Kind": "TGI", "Observed": "> 100 µM"}
{"Compound": "NC(=O)NC1NC(=O)NC1=O (centres undefined)", "Measured On": "TK-10 renal", "Readout Kind": "TGI", "Observed": "> 100 µM"}
{"Compound": "C[C@]12CCC(O)CC1=CC[C@@H]1[C@@H]2CC[C@]2(C)C(O)[C@H](n3ccnc3)C[C@@H]12 (some centres undefined)", "Measured On": "TK-10 renal", "Readout Kind": "TGI", "Observed": "> 100 µM"}
{"Compound": "COC(=O)Nc1nc2ccc(Oc3ccc(NC(=O)Nc4ccccc4)cc3)cc2[nH]1", "Measured On": "TK-10 renal", "Readout Kind": "TGI", "Observed": "9.74 µM"}
{"Compound": "Nc1ncc(-c2cnn(CCO)c2)c2scc(-c3ccc(NC(=O)Nc4cccc(F)c4)cc3)c12", "Measured On": "TK-10 renal", "Readout Kind": "TGI", "Observed": "3.43 µM"}

GET /values?readout=TGI&item= `C1=C(CC2=C[P+](c3ccccc3)(c3ccccc3)C=C(c3ccccc3)O2)OC(c2ccccc2)=C[P+]1(c1ccccc1)c1ccccc1` 1.67 µM

Another compound: COC(=O)C1C2OC(C)(C)OC2CN1S(=O)(=O)c1ccc(C)cc1 (centres undefined) > 100 µM

Do the same for `O=C1c2ccccc2-c2c1c1ccccc1c(=O)n2Cc1ccccc1` please > 100 µM
